experiment: NCI Yeast Anticancer Drug Screen. Data for the mec2-1 strain (AID 157); conditions: S. cerevisiae mec2-1 strain, at 50.0 µM, hits give high values
About 79,000 compounds went through this panel and 15% of them were active in at least one assay; those are over-represented in the sample as a whole.
Property name: growth inhibition (%)

- CCCC(C)C(=O)OC1CCCCC1C (stereo unspecified): 4.25
- CCOC(=O)N1C=Cc2c(c3ccccc3n2C)N1C(=O)OCC: 1
- NC(=O)CNC(=O)CN1C(=O)c2ccccc2C1=O: -14.6
- CCCCN1C(=O)C(NC(C)=O)C1COC(C)(C)C (stereo unspecified): -5.2
- CCCC(=O)NC(NC1CCCCC1)(C(=O)OCC)C(F)(F)F (stereo unspecified): -0.15
- O=C1ON(c2ccccc2)C(c2ccc(OCc3ccccc3)cc2)N1c1ccccc1 (stereo unspecified): 14

###

assay: NCI Yeast Anticancer Drug Screen. Data for the mec2-1 strain (AID 157); conditions: S. cerevisiae mec2-1 strain, at 50.0 µM, hits give high values
This is part of a sample that, as a whole, favours compounds with a hit. Of some 79,000 tested, about 15% had one in any assay.
growth inhibition by entry:
Property name: growth inhibition (%)

* CCS(=O)(=O)/C=C/c1cccnc1 | -4.8
* COc1ccc(OC)c(NC(=O)c2ccccc2Cl)c1 | -1.95
* CCCCCCCCC(=O)O (tested in a mixture with another compound) | 6.75
* Cc1ccc(C)n1-n1c(-c2ccccc2)n[nH]c1=O | -20.9
* O=C(Nc1cccc(Cl)c1)C(Br)C(Br)c1ccccc1 (centres undefined) | 99.2
* COc1ccccc1C(O)(c1ccccc1OC)C1(O)CCCCC1 | -2
* O=C1c2ccccc2C(=O)N1c1cccc2ccccc12 | 8.2
* CC(C)=C/C(CC(O)(C(F)(F)F)C(F)(F)F)=N\O | 4.45
* O=C(NNC(=O)c1ccccc1F)c1ccc2ccccc2c1 | -13.3
* CCOC(=O)c1ccc(Nc2nc3ccccc3nc2C(=O)OCC)cc1 | -39.1
* Oc1ccccc1C=Nc1ccc(N2CCOCC2)cc1 | -3.7
* Cn1ccc2c3ccn(C)c3ccc21 | 9.4
* O=C1c2ccccc2C2(c3ccccc3)C=NNC12c1ccccc1 (centres undefined) | 6.9
* O=C(Nc1ccc(CCO)cc1)Nc1ccc(Cl)cc1[N+](=O)[O-] | 34.9
* CCN(CC)CCNC(=O)c1c(C)cc(C)cc1C | 0.2
* CC1CCCCN1Cc1ccccc1COC(=O)c1ccc([N+](=O)[O-])cc1 (centres undefined) | -5.05
* CC(=O)OCC1OC(n2cnc3c(N)ncnc32)C(O)C1O (centres undefined) | -6.45
* CCCCCCCCCCNCC(=O)O | -16.6
* OCN(CO)c1ccc2c(c1)Cc1cc(Cl)ccc1-2 | -24.1
* Cc1cc(Cl)ccc1NC(=O)/C(Cc1nc2ccc(C(=O)c3ccccc3)cc2[nH]c1=O)=N/NC(=O)c1ccncc1 | 17.1
* C=CC1=C(C)C2=NC1=CC1=NC(=CC3=C(C)C4=C(O)[C@H](C(=O)OC)C(=C5NC(=C2)[C@@H](C)[C@@H]5CCC(=O)O)C4=N3)C(CC)=C1C | 8.1
* O=C(/C=C/c1ccc(Cl)cc1)c1ccc(Cl)s1 | -48.8
* CC(C)(C)NC(=S)N/N=C/c1ccccn1 | 85.2
* CSc1nc(=O)cnn1C | -8.6

###

growth inhibition by entry:
experiment: NCI Yeast Anticancer Drug Screen. Data for the rad50 strain (AID 155);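 also: 0% = growth of vehicle-only cultures of the same strain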; conditions: S. cerevisiae rad50 strain growth inhibition; at 50.0 µM; hits give high values
About 79,000 compounds went through this panel and 15% of them were active in at least one assay; those are over-represented in the sample as a whole.
Property name: growth inhibition (%)

- Br/C=C\Br: -2.85
- Cc1ccc2c(c1)CCCN2: 7.2
- COC(=O)C(C#N)=C(C)C: 2.3
- Cc1c(C)c(O)c2c(c1C)C(C)C(=O)OC2=O (stereo unspecified): 1.2
- CCN(CC)CC(=N)N(CC)c1ccccc1: 26.5
- CC(=O)Nc1ccc(-c2nnc(SCC(=O)Nc3ccccc3C)o2)cc1: -6.55
- C=CC12COC(=O)CC1CCC(=O)C2 (stereo unspecified): 4.75
- c1ccc2c(c1)N=C(NNC1=Nc3ccccc3SC1)CS2: 2.35
- O=C(CSc1nnc(-c2ccccc2NC(=O)C(F)(F)F)c(=O)[nH]1)NC(=O)Nc1ccccc1: 31.7
- CN1OC(CO)CC12C1CC3CC(C1)CC2C3 (stereo unspecified): -41
- COc1ccc(CCCCC(=O)O)cc1: -12.1
- CC[N+](CC)(CC)C[Si](C)(C)C: 5.05
- O=C1Cc2c([nH]c3c(Cl)cccc23)-c2ccccc2N1: -4.65
- COc1ccc(C23C(=O)c4ccccc4N2O[C@H]2C(=O)N(c4ccccc4)C(=O)[C@H]23)cc1 (stereo partly specified): -22.2
- C(=C\c1nc2ccccc2nc1/C=C/c1ccccc1)/c1ccccc1: -25.9
- CN(C)S(=O)(=O)c1ccc(NC(=O)OC(C)(c2ccccc2)C2CCCCC2)cc1 (stereo unspecified): 17.4
- O=c1[nH]c2ccccc2c2ccc(Br)cc12: 17.4
- CC(=O)Oc1cc(Cl)c(Cl)cc1Cl: 19.9
- CC(=O)Nc1nc2nccn2c(=O)[nH]1: -5.7
- COc1c(-c2ccccc2)c(=O)n2c3cc(C)c(C)cc3n(C)c2c1C#N: -13.4
- COC(=O)c1ccc(/C=C2\N=C(C)OC2=O)cc1: -17.9
- Cc1[nH]c2ccccc2c1C1=CC(=O)c2ccccc2C1=O: 8.55
- COc1ccc(Cc2c3cc(OC)c(OC)cc3cc[n+]2C)cc1: -0.05
- COc1ccc(C2OCC(COC(C)=O)O2)cc1OC (stereo unspecified): -11
- CCC(CC)C(=O)NC(O)C(Cl)(Cl)C(C)Cl (stereo unspecified): 3.8
- CC(COCc1ccccc1)NCc1ccccc1 (stereo unspecified): -7.35
- O=C1c2ccsc2C(=O)c2sc(CO)cc21: 90.3
- CC(=O)N1c2ccccc2C(C)(C)C1O (stereo unspecified): 6.85
- CC(C)(OC(=O)Nc1ccccc1)c1ccc([N+](=O)[O-])cc1: -5
- COc1ccc(C2CC(c3ccccc3)=NN2c2ccccc2)cc1 (stereo unspecified): 0.75
- NC(=O)N/N=C1\CCn2cccc21: -10.8
- CC/C=N/Nc1cn[nH]c(=O)c1Cl: -1.3
- Oc1ccc(Cl)c2cccnc12: 98.9
- Fc1ccc(-c2ccc(F)cc2)cc1: -18.6
- O=C(CC(=O)Nc1ccccc1)N/N=C/c1cc(N=Nc2ccc(Br)cc2)ccc1O: 16.4
- COc1cc2c(OC)cc1CSCc1sc(C)c(c1Br)CSC2: 19.1
- CCOc1ccc(NC(=S)NC=C(C(N)=O)C(N)=O)cc1: -47.3
- Nc1nc2ncc(CCCNc3ccc(C(=O)NC(CCC(=O)O)C(=O)O)cc3)nc2c(=O)[nH]1 (stereo unspecified): 33
- Cc1ccc(S(=O)(=O)OCC23CCC(C4CC42)C2CC23)cc1 (stereo unspecified): -21.9
- CC(C)Nc1ccc(O)cc1: -21.1
- CCOC(=O)CCCCCCCCCC[N+](CC)(CC)CC(=O)c1ccc(NC(C)=O)cc1: -1.05
- CCOC(=O)C1Cc2ccccc2OC1=O (stereo unspecified): -9.4
- O=C1CCN2CCC(=O)c3c2c(cc2ccccc32)N1: 6.25
- CCn1nc(C)c2c1C(=O)NCC(=O)N2: -34.1
- Cc1ccc(S(=O)(=O)/C(C#N)=C/NC(=S)Nc2ccc(C)cc2C)cc1: -53.7
- CCCCOCN(COCCCC)CC(C)(C)C: 20.9
- COc1ccc(C2C(=O)c3ccc(OC)cc3OC2c2cccnc2)cc1 (stereo unspecified): 14.9
- CCOC(=O)/C=C\C(=O)O.[Mn]: -16.2
- COC(=O)c1c2c(cc3c1CC1(Cc4cc5c(c(C(C)=O)c4C1)CCC5)C3)CCC2 (stereo unspecified): -34.1
- CSc1ncc2c(C#N)c3sc4ccccc4n3c(=O)c2n1: 14.8
- COc1c(C(=O)/C(=N/Nc2cccc(Cl)c2)C(C)=O)c(O)c(OC)c2occc12: -5.15

###

Assay: NCI Yeast Anticancer Drug Screen. Data for the rad50 strain (AID 155);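 also: 0% = growth of vehicle-only cultures of the same strain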
Conditions: S. cerevisiae rad50 strain growth inhibition; at 50.0 µM; hits give high values
Procedure: Growth inhibition of yeast strains with defined genetic alterations is measured as a screen for potential anti-cancer activity. Selected strains with alterations in DNA damage repair or cell cycle control were exposed to compounds and growth inhibition was measured relative to vehicle treated controls. The strain used in this assay is rad50
This is part of a sample that, as a whole, favours compounds with a hit. Of some 79,000 tested, about 15% had one in any assay.
Property name: growth inhibition (%)

- C#CC(C)(C)Oc1cc(O)c2c(=O)c3ccccc3n(C)c2c1: -7.9
- CCCCC(CC)OC(=O)c1cccc(C)c1 (stereo unspecified): 9.15
- NS(=O)(=O)c1ccc2cc(S(N)(=O)=O)ccc2c1: 19.1
- COc1ccc2c(c1)CCC1C2CCC2(C)C(=O)C(n3cnc4c(=S)nc[nH]c43)CC12 (stereo unspecified): 42.3
- CCCCC1SCC(=O)N1c1nncs1 (stereo unspecified): 6.35
- Cc1ccc(N=Nc2ccc(C)cc2NC(=O)Nc2cc([N+](=O)[O-])ccc2F)cc1: 13.4
- C(=N[C@H]1CCCC[C@H]1N=Cc1ccc[nH]1)c1ccc[nH]1: 14.8
- O=C(Nc1cccc(Cl)c1)C(Br)C(Br)c1ccccc1 (stereo unspecified): 97.8
- COC(=O)N/N=C/c1ccc(C)cc1: -4.1
- CCOC(=O)C(CCc1ccc([N+](=O)[O-])cc1)(CCc1ccc([N+](=O)[O-])cc1)C(=O)OCC: -8.7
- N#Cc1c(-c2ccccc2)ssc1=S: 31.4
